Target: T1, cynoSIRPα (XP_015313155), Extracellular Domain + His-Tag (cynomolgus monkey)
T1 construct: also called CySIRPα XP_015313155; not shown: His-Tag
T1 chain: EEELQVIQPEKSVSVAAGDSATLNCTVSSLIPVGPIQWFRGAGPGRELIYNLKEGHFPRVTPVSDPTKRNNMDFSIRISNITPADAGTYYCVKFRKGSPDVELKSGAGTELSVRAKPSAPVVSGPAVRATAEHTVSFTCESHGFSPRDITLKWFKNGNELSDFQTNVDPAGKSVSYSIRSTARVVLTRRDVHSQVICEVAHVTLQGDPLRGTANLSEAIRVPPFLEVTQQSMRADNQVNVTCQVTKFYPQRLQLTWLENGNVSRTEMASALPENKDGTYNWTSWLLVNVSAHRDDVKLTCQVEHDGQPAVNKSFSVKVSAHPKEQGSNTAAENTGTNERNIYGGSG
Assay: SPR, antibody captured on Protein A/G, ECD-His analyte, 1:1 fit
pKd by entry:
Please treat pKd as minus the base-10 logarithm of the molar concentration.

* Antibody E12 (antibody, human IgG1, kappa, L234A L235A, V domains shown) VH: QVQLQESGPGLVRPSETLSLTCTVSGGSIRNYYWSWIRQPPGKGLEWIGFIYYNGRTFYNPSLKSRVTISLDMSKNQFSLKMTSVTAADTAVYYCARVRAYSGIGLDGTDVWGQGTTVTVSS VL: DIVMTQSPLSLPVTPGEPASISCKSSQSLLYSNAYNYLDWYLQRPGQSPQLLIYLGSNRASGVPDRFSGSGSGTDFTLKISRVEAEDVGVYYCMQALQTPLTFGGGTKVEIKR | 7.37

// sample Antibody E14 (antibody, human IgG1, kappa, L234A L235A, V domains shown) VH: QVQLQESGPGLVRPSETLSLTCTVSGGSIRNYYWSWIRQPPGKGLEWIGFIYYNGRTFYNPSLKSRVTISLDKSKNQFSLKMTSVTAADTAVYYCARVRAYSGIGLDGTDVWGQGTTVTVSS VL: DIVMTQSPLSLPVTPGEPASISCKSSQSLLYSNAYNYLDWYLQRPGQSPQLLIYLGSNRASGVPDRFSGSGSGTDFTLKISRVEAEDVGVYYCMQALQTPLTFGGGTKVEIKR , its pKd was 7.06
